# System: male CF1 mice
# Assay remarks: Hypolipidemic activity in CF1 mice, intraperitoneal dosing (serum cholesterol and triglyceride)
# Assay type: in vivo
# Condition description: Mus musculus, ip, 384 h; Table II; 8 mg./kg./day i.p., male CF1 mice, day 16; read-out: Serum Triglyceride Day 16
Quick rule for you: response vs control in vivo at 8 mg/kg under 70% gets TRUE, anything else gets FALSE.

Input line: Does the reported response vs control in vivo at 8 mg/kg of the following molecule sit strictly below 70%? `[BH3-][N+](C)(C)CCCCCCCCCCCCCC`
Output line: FALSE

Input line: Does the reported response vs control in vivo at 8 mg/kg of the following molecule sit strictly below 70%? `[BH3-][N+](C)(C)CCCCCCCCCCCCCCCC`
Output line: TRUE

Input line: Does the reported response vs control in vivo at 8 mg/kg of the following molecule sit strictly below 70%? `[BH3-][N+](C)(C)CCCCCCCC`
Output line: FALSE

Input line: Does the reported response vs control in vivo at 8 mg/kg of the following molecule sit strictly below 70%? `[BH3-][N+](C)(C)CCCCCCCCCCCCCCC`
Output line: FALSE

Input line: Does the reported response vs control in vivo at 8 mg/kg of the following molecule sit strictly below 70%? `[BH3-][N+](C)(C)CCCCCCCCCC`
Output line: FALSE

More entries:
Input line: Does the reported response vs control in vivo at 8 mg/kg of the following molecule sit strictly below 70%? `[BH3-][N+](C)(C)Cc1ccccc1`
Output line: TRUE

Input line: Does the reported response vs control in vivo at 8 mg/kg of the following molecule sit strictly below 70%? `[BH3-][N+](C)(C)CCCCCCCCCCCCC`
Output line: FALSE

* * *

# Assay remarks: Toxicity (LD50)
# Condition description: in vivo
Attribute measured: LD50

Input line: If you can, please state the reported LD50 value of `[BH3-][N+](C)(C)CCCCCCCCCCCCCCCCCC` .
Output line: > 500 mg/kg

* * *

# Test system: male CF1 mice
# Assay remarks: Hypolipidemic activity in CF1 mice, intraperitoneal dosing (serum cholesterol and triglyceride)
# Assay type: in vivo
# Condition description: Mus musculus, ip, 384 h; Table II; 8 mg./kg./day i.p., male CF1 mice, day 16; read-out: Serum Cholesterol Day 16
Attribute measured: response vs control in vivo at 8 mg/kg (%)
Numbers only, in %.

Consider the worked cases shown below.
Input line: If you can, please state the reported response vs control in vivo at 8 mg/kg value of [BH3-][N+](C)(C)CCCCCCCCCCCCCCC [VI, N--pentadecyl-N,N--dimethylamine borane] .
Output line: 66

Input line: If you can, please state the reported response vs control in vivo at 8 mg/kg value of [BH3-][N+](C)(C)CCCC [XI, N-- -n-butyl-N,N--dimethylamine borane] .
Output line: 64

Input line: If you can, please state the reported response vs control in vivo at 8 mg/kg value of [BH3-][N+](C)(C)Cc1ccccc1 [XIII, N--benzyl-N,N--dimethylamine borane] .
Output line: 65

Below: the item to evaluate.
Input line: If you can, please state the reported response vs control in vivo at 8 mg/kg value of [BH3-][N+](C)(C)CCCCCCCC [II, N-octyl-N,N-dimethylamine borane] .
Output line: 73

* * *

Please go through the items and note down their response vs control in vivo at 20 mg/kg.
# Test system: male CF1 mice
# Assay remarks: Hypolipidemic activity in CF1 mice, intraperitoneal dosing (serum cholesterol and triglyceride)
# Assay type: in vivo
# Condition description: Mus musculus, ip, 216 h; Table I; 20 mg./kg./day i.p., male CF1 mice, day 9; read-out: Serum Cholesterol Day 9
Give bare numbers, in %.

Consider the worked cases shown below.
Input line: If you can, please state the reported response vs control in vivo at 20 mg/kg value of [BH3-][N+](C)(C)CCCC [XI, N-- -n-butyl-N,N--dimethylamine borane] .
Output line: 72

Input line: If you can, please state the reported response vs control in vivo at 20 mg/kg value of [BH3-][N+](C)(C)CCCCCCCCCCCCCCCCCC [I, N-n-Octadecyl-N,N-Dimethylamine Borane] .
Output line: 82

Below: the item to evaluate.
Input line: If you can, please state the reported response vs control in vivo at 20 mg/kg value of [BH3-][N+](C)(C)CCCCCCCCCCCCC [V, N--tridecyl-N,N--dimethylamine borane] .
Output line: 88
